- ASSAY_NOTES: Inhibition of human steroid 5-alpha-reductase
pIC50: −log10 of the molar value.
Collected pIC50 values appear next to each entry.
ENDPOINT_NAME: pIC50

                                   molecule  numeric_readout
0  C[C@]12CCC(=O)C=C1CCC1C2CC[C@]2(C)C(n3ccnn3)=CCC12 (some centres not stated)             6.70
1  C[C@]12CC[C@H](O)CC1=CCC1C2CC[C@]2(C)C(n3ccnc3)=CCC12 (some centres not stated)             3.40
2  C[C@]12CC[C@H](O)CC1=CC[C@@H]1[C@@H]2CC[C@]2(C)C(n3cncn3)=CC[C@@H]12             3.80
3  C[C@]12CCC(=O)C=C1CCC1C2CC[C@]2(C)C(n3cncn3)=CCC12 (some centres not stated)             6.82
4  C[C@]12CC[C@H](O)CC1=CCC1C2CC[C@]2(C)C(n3ccnn3)=CCC12 (some centres not stated)             5.00
5  CC(C)(C)NC(=O)[C@H]1CC[C@H]2[C@@H]3CC[C@H]4NC(=O)C=C[C@]4(C)[C@H]3CC[C@]12C [FINASTERIDE]             7.48
6  C[C@]12CCC(=O)C=C1CCC1C2CC[C@]2(C)C(n3ccnc3)=CCC12 (some centres not stated)             6.85

FYI, the data here is from ChEMBL document CHEMBL1131494.
